Target: ZmDRIK1 (DROUGHT RESPONSIVE INACTIVE KINASE 1), kinase domain (Zea mays, UniProt C0P4K9)
Construct: gene ZEAMMB73_Zm00001d028770; ZmDRIK1-KD R187-S514 (kinase domain)
Sequence (C0P4K9 187-514): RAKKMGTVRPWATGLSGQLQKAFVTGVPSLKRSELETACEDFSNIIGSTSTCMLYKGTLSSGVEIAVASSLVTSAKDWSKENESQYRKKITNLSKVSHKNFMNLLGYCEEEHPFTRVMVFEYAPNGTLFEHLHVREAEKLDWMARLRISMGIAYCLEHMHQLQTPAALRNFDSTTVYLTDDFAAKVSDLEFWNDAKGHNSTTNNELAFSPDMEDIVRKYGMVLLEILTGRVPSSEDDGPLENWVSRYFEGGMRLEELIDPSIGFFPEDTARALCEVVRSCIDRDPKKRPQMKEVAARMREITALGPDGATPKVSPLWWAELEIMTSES
Experiment: biochemical
Details: read-out: dTm B, sheet ZmDRIK1-R187-S514;; DSF, Boltzmann fit, 0.1% DMSO
Where a name gives a salt, the structure may show the parent alone.
metric: ΔTm at 10 µM (°C)
Number only, in °C; omit the unit.

CNC(=O)c1cccc(-c2ccc3c(N4CCOC[C@@H]4C)nc(N4CCOC[C@@H]4C)nc3n2)c1 [AZD2014] ... -0.732
Cc1nc(NC(=O)N2CCC[C@H]2C(N)=O)sc1-c1ccnc(C(C)(C)C(F)(F)F)c1 [BYL719] ... -0.448
Cc1cc(C(=O)NOCCO)c(Nc2ccc(I)cc2F)n(C)c1=O [AZD8330] ... -0.935
Nc1ncnc2c1c(-c1cnc3[nH]ccc3c1)nn2C1CCCC1 [PP121] ... -0.595
CCCS(=O)(=O)Nc1ccc(F)c(C(=O)c2c[nH]c3ncc(Cl)cc23)c1F [PLX-4720] ... -1.27

// ΔTm at 10 µM lookup, key: CNc1nc(-c2ccc3c(N)n[nH]c3c2)cc(N2C[C@@H](C(=O)NC3CCCCC3)CC[C@H]2C)n1 [GSK2334470]
-0.8

// ΔTm at 10 µM lookup, key: Oc1cccc(-c2nc(N3CCOCC3)c3oc4ncccc4c3n2)c1 [PI-103]
-0.608

// ΔTm at 10 µM lookup, key: COc1ccc2c(Oc3ccc(NC(=O)c4c(C)n(CC(C)(C)O)n(-c5ccccc5)c4=O)nc3)ccnc2c1 [AMG-458]
-0.675

// ΔTm at 10 µM lookup, key: C=CC(=O)Nc1cccc(Nc2nc(Nc3ccc(N4CCN(C(C)=O)CC4)cc3OC)ncc2C(F)(F)F)c1 [CO-1686 (AVL-301)]
-0.884

// ΔTm at 10 µM lookup, key: CC(C)(C)c1cc(NC(=O)Nc2ccc(-c3cn4c(n3)sc3cc(OCCN5CCOCC5)ccc34)cc2)no1 [Quizartinib (AC220)]
-11.5

// ΔTm at 10 µM lookup, key: CNC(=O)c1cc(Oc2ccc(NC(=O)Nc3ccc(Cl)c(C(F)(F)F)c3)cc2)ccn1 [Sorafenib Tosylate]
-12

// ΔTm at 10 µM lookup, key: Cc1[nH]c(/C=C2\C(=O)Nc3ccc(S(=O)(=O)Cc4c(Cl)cccc4Cl)cc32)c(C)c1C(=O)N1CCC[C@@H]1CN1CCCC1 [PHA-665752]
-0.988

// ΔTm at 10 µM lookup, key: CCn1c2ccccc2c2cc(Nc3ccnc(NCCCN4CCOCC4)n3)ccc21 [EHop-016]
-0.693

// ΔTm at 10 µM lookup, key: O=C(Cc1ccc(-c2ccc(OCCN3CCOCC3)cc2)cn1)NCc1ccccc1 [KX2-391]
-0.49

// ΔTm at 10 µM lookup, key: COc1cc2ncnc(Nc3ccc(O)c(Br)c3)c2cc1OC [WHI-P154]
0.428

// ΔTm at 10 µM lookup, key: CC1(C)CNc2cc(NC(=O)c3cccnc3NCc3ccncc3)ccc21 [Motesanib Diphosphate (AMG-706)]
-0.808
